B1: PBXIP1 (parent)
chain: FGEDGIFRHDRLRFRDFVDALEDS

Variants of: B1
Test: protein stability index of a GFP-peptide fusion (GPS, HEK-293T) (PSI 1-6); higher = more stable;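 note: lentivirally expressed fusions sorted by FACS into six bins by GFP to DsRed ratio, PSI derived from sequencing read proportions per bin multiplied by bin number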
Conditions: c terminus: a fixed tail appended
measurement.label: protein stability index
Enter the number alone.

# example entries with known answers
FGEDGIFRHDRLRFRDFVDALEWS [D23W] = 1.84
FGEDGILRHDRLRFRDFVDALEDS [F7L] = 3.13

Entry under test: FGEDGIRRHDRLRFRDFVDALEDS [F7R] . Its protein stability index was 2.84

Entry under test: FGEDGIFRHDRLRFRDFVDALEDF [S24F] . Its protein stability index was 1.8

Entry under test: FGEDGIFRHDRLRGRDFVDALEDS [F14G] . Its protein stability index was 3.67

Entry under test: AGEDGIFRHDRLRFRDFVDALEDS [F1A] . Its protein stability index was 4.02

Entry under test: FGEDGIFRHDRLRFRGFVDALEDS [D16G] . Its protein stability index was 1.97

Entry under test: FGEDGIFRHDRLRFRDFPDALEDS [V18P] . Its protein stability index was 2.94

Entry under test: FGEDGIFRHDRLRFRTFVDALEDS [D16T] . Its protein stability index was 2.08

Entry under test: FGEDGIFRHDRLRFRDFVDALEMS [D23M] . Its protein stability index was 2.32

Entry under test: FGEVGIFRHDRLRFRDFVDALEDS [D4V] . Its protein stability index was 2.76

Entry under test: FGEDGIFRHDRLRFRDFVDALEDN [S24N] . Its protein stability index was 3.15

Entry under test: FGEDAIFRHDRLRFRDFVDALEDS [G5A] . Its protein stability index was 3.02

Entry under test: FGEDGIFRHDRLRFRDFVDAEEDS [L21E] . Its protein stability index was 3.67

Entry under test: FGEDGIFRHDRLRFRDFVDAPEDS [L21P] . Its protein stability index was 3.65

Entry under test: FGEDGIFRHDRLRFRDFVDALEDK [S24K] . Its protein stability index was 3.08

Entry under test: FGEDGIFRHDRLRFRDFYDALEDS [V18Y] . Its protein stability index was 2.4

Entry under test: FGEDGINRHDRLRFRDFVDALEDS [F7N] . Its protein stability index was 4.02

Entry under test: FGEDGEFRHDRLRFRDFVDALEDS [I6E] . Its protein stability index was 4.52
